Parameter inhibition of aggregation: see the listing below.
METHOD: reduction of polyQ htt aggregates in cells – imaging, exon1htt(103Q)mCFP cells, high-content imaging, primary screen (AID 483);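 note: compound exposure lasted 3 days before fixation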
CONDITION SUMMARY: exon1htt(103Q)mCFP cell line, aggregate imaging, at 2 µM; stronger effect = higher value
The figure you give is taken to be in %; do not add the unit.

Take a look at these entries with their results.
O=C(O)C1C2CCC(C2)C1C(=O)NCCCn1ccnc1 (stereo unspecified)	18.3
O=C(CN1C(=O)COc2ccccc21)NCCCN1CCc2ccccc2C1	-7.3
COc1ccc(S(=O)(=O)NCc2ccco2)cc1-c1nnc2c3ccccc3c(C)nn12	-27
CCOC(=O)C1=C(CC)Nc2ccccc2N=C1NC(=O)Nc1ccccc1OC	7.2
Cc1ccc(N2CC(C(=O)Nc3ccc4c(c3)OCO4)CC2=O)cc1 (stereo unspecified)	18.6
Cc1nc2ccccc2c2oc(C(=O)NCc3ccccn3)cc12	17.9
Cc1occc1C(=O)Nc1cccc2ccccc12	16.6
CCOC(=O)CSC1=Nc2ccccc2C2=NC(CC(=O)NCc3cccs3)C(=O)N12 (stereo unspecified)	13.9
CCCC(=O)Nc1ccccc1NC(=O)CN(C)S(=O)(=O)c1ccc(C)cc1	-6.6
O=C(CSc1nnc(Cn2nnc(-c3ccccc3)n2)n1-c1ccccc1)Nc1ccc(F)cc1	-10.3

Here is another compound to look at.
For the compound `CCOc1ccc(NC(=O)CN(C)S(=O)(=O)c2cccs2)cc1` , give its measured inhibition of aggregation value.
-4.9

---

METHOD: inhibitors of TNFa-induced NFkB p65 translocation, primary screen, imaging, HUVEC, MLSMR starter and 10KST1 sets (AID 438);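 note: compound added about 3h40 before a 20 min TNFalpha stimulation; signal is the nuclear over cytoplasmic p65 intensity ratio per well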
CONDITION SUMMARY: HUVEC TNFa-induced p65 nuclear translocation; at 2 µM, stronger effect = higher value, 0% TNFa-plus-vehicle, 100% no-TNFa wells
Activity calls are given as the source filed them.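 The calls were made as follows: active = inhibition above 20% together with a positive visual image hit; inconclusive = visual image hit but inhibition not above 20%; inactive = no visual image hit.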
MEASURE: inhibition

// worked examples, inhibition included
O=C1c2ccccc2-c2nc3ncnn3c(-c3ccccc3)c21	-7.8% (inactive)
CN(Cc1cccs1)c1ncnc2sccc12	-11.6% (inactive)
CN(CCC#N)C(=O)COC(=O)c1ccc(Cl)c(S(N)(=O)=O)c1	-2.2% (inactive)

Determine from records and report inhibition for `O=C(Cn1ccc2ccccc2c1=O)NCCC(=O)N1CCN(C2CCCCC2)CC1`
-3.8% (inactive)

For `Cc1cc(=O)[nH]c2c1cnn2Cc1ccccc1` , write its inhibition.
3.9% (inactive)

Provide one value: measured inhibition of `CCOc1ccc(OCc2cccc(C(=O)O)c2)cc1`
3.8% (inactive)

---

TESTED TARGET: Voltage-gated potassium channel subunit beta-2 (Rattus norvegicus) (UniProt P62483)
Sequence (P62483 whole entry, looked up): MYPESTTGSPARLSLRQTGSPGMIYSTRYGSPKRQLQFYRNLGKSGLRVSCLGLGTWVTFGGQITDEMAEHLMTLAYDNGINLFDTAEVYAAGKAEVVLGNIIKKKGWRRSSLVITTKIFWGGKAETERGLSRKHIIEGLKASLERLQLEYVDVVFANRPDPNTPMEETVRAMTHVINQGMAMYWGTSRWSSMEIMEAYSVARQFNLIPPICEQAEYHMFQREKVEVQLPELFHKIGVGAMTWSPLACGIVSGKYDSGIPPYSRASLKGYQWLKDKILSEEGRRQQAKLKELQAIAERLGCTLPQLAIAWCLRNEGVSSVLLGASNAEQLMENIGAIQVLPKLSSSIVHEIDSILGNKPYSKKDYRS
METHOD: inhibitors of rat Kvbeta2 reductase activity – biochemical, NADPH fluorescence, primary screen (AID 622);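 note: slope of raw intensity against log time taken from 70 to 1610 s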
CONDITION SUMMARY: recombinant KvBeta, 4-cyanobenzaldehyde reduction, at 10 µM, stronger effect = higher value
# label = TRUE if fluorescence slope >= -0.5 else FALSE

CN(C)CCCC1(c2ccc(F)cc2)OCc2cc(C#N)ccc21 (configuration not stated)	TRUE
COc1ccc(OC(C)C(=O)N2CCN(c3ccccn3)CC2)cc1 (configuration not stated)	TRUE
Cc1ccccc1NC(=O)c1ccc(NC(=O)c2ccco2)cc1	TRUE
COC(=O)c1c(NC(=O)c2ccc(S(=O)(=O)N3CCOCC3)cc2)sc2c1CCN(C)C2	TRUE
O=C(O)c1cc2c([nH]c1=O)CCCC2	FALSE
O=C(Nc1nncs1)c1ccccc1NS(=O)(=O)c1cccs1	TRUE
COC(=O)Cn1c2c(c3cc(C)ccc31)CCCC2	FALSE
O=C(NC1CC2CCC1C2)c1ccc(CN2CCOCC2)cc1 (configuration not stated)	TRUE

Hi, just wondering whether CC(C)C1N=C2c3ccccc3N=C(SCC(=O)NCCc3ccc(S(N)(=O)=O)cc3)N2C1=O (configuration not stated) shows fluorescence slope of -0.5 or higher.
FALSE

Is fluorescence slope at least -0.5? Consider `Cc1cc(OC(=O)N2CCOCC2)cc(C)c1Cl`
TRUE

Evaluate `O=C(NCCO)C1(c2ccccc2)CCCC1` : fluorescence slope at minimum -0.5?
TRUE

---

TESTED TARGET: Voltage-gated potassium channel subunit beta-2 (Rattus norvegicus)
METHOD: enhancers of rat Kvbeta2 NADPH turnover – biochemical, NADPH fluorescence, primary screen (AID 623);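 note: fluorescence intensity change per second fitted from 20 to 320 s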
CONDITION SUMMARY: Recombinant KvBeta, NADPH fluorescence decrease slope, 10 min; at 10 µM; stronger effect = lower value
MEASURE: NADPH fluorescence slope
Please respond with just the number, no unit label.

Consider the following illustrative entries.
Cc1ccc(OC(=O)CCc2c(C)nc3ncnn3c2C)cc1	9.9e-06
Cc1ccc(CSc2nc3c(c(=O)[nH]2)C(c2ccncc2)C2=C(CCCC2=O)N3)cc1 (stereo unspecified)	-3.5e-05
CCOC(=O)c1nnn(-c2nonc2NC(C)=O)c1C	-1.6e-05
CCOCCCNC(=O)c1ccc2c(c1)ncn2C1CCCC1	4.4e-05
Cc1noc(C)c1C(=O)OCC(=O)Nc1ccccc1C(=O)NC(C)c1ccccc1 (stereo unspecified)	-0.000106
Clc1ccccc1-c1nnc2sc(-c3ccccn3)nn12	-6.3e-05
C/C(=N\O)c1ccc2c3c([nH]c2c1)CCCC3	-3.8e-05
O=C(CCNC(=O)Cn1ccc2ccccc2c1=O)NCCN1CCN(c2ccccc2F)CC1	3.6e-05
COc1ccc(CN(CCN(C)C)c2ccccn2)cc1	9.4e-06
Clc1ccc(Cc2nn3c(-c4ccncc4)nnc3s2)cc1	-0.000147

Read the next record carefully.
Name the value of NADPH fluorescence slope reported for `CCc1ccc2c(CN(CC)Cc3nc4ccccc4c(=O)[nH]3)cc(=O)oc2c1` when tested on Voltage-gated potassium channel subunit beta-2 (Rattus norvegicus).
5.5e-06

---

METHOD: loss of swimming-algae plug formation – whole organism, Chlamydomonas reinhardtii, WT vs cilia-less mutant, absorbance, 96-well, primary screen (AID 463189);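 note: 0% = wild type cc124 cells in DMSO and 100% = ciliumless bld1 mutant cells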
CONDITION SUMMARY: Chlamydomonas reinhardtii gravitaxis, OD600 absorbance, 2 days; at 10 µM; stronger effect = higher value
MEASURE: inhibition (%)
Give just the numeric value; % need not be written.

Below, 2 molecules whose answers are already recorded.
N[C@@H](CCCC(=O)O)C(=O)O	6.53
O=c1[nH]c2cc([N+](=O)[O-])c([N+](=O)[O-])cc2[nH]c1=O	5.09

Return reported inhibition. Input molecule: `Cc1cccc(C)c1NC(=O)C[N+](C)(C)C`
7.92

Report inhibition for `O=C(O)[C@@H]1C[C@@H](C(=O)O)N1`
-5.37

Please report inhibition for the following molecule: `Cn1c(=O)c2[nH]c(-c3ccccc3)nc2n(C)c1=O`
-0.378

Identify measured inhibition corresponding to `CN(C)CCC=C1c2ccccc2C=Cc2ccccc21`
12.9

---

inhibition for assorted compounds
METHOD: TLR3 IRF3 reporter activation blockers – cell-based, poly I:C stimulus, luciferase, 10K MLSCN set, primary screen (AID 602277)
CONDITION SUMMARY: HEK293-TLR3 RL24 IRF3 luciferase reporter, at 10 µM, stronger effect = higher value
Give the number; % is assumed, so skip it.

Use the examples below as a reference point.
COC(=O)c1[nH]c(C)c(/C(O)=C2\C(=O)C(=O)N(CCN(C)C)C2c2ccccc2OC)c1C (stereo not given)	2.66
COc1ccc(OC)c(C2=NOC(C(=O)Nc3c(C)n(C)n(-c4ccccc4)c3=O)C2)c1 (stereo not given)	17.6
Cc1coc(NC(=O)CSc2nc(-c3ccncc3)cc(C(F)(F)F)c2C#N)n1	8.54
Cn1cccc1-c1nc2ccc(NC(=O)c3ccco3)cc2[nH]1	-102
COc1ccccc1C(=O)Nc1ccc(S(=O)(=O)N2CCOCC2)cc1	0.189
O=C(Nc1ccc(Cl)cc1)C1CC=CCC1C(=O)OCC(F)(F)C(F)F (stereo not given)	3.19
COc1cccc(-n2c(C)nc3c(cnn3-c3ccc(Cl)cc3)c2=O)c1	4.48
CCOC(=O)N1CCC(Nc2c(-c3ccc(C)cc3)c(=O)c2=O)CC1	16.5
COc1ccc(N(CC(=O)N2CCN(Cc3ccc4c(c3)OCO4)CC2)S(C)(=O)=O)cc1OC	20.2

// Input: O=C(COC(=O)Cc1cccc(C(F)(F)F)c1)NCC1CCCO1 (stereo not given) . Output its inhibition only.
2.06

---

nuclei count listing for selected compounds.
METHOD: reduction of polyQ htt aggregates in cells – imaging, exon1htt(103Q)mCFP cells, high-content imaging, primary screen (AID 483);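 note: compound exposure lasted 3 days before fixation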;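 for nuclei count: percent of the per-plate median nuclei count of sample wells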
CONDITION SUMMARY: exon1htt(103Q)mCFP cell line, aggregate imaging, at 2 µM; measured here: cell count, toxicity
Form entry: value (%) — number only.

Give the measured nuclei count for CC1(c2ccncc2)Nc2ccccc2-c2nc3ccccc3n21 (centres undefined)
69.9

Look up nuclei count of `O=C1CS/C(=N\C(=O)N2c3ccccc3Sc3ccccc32)N1` and report it.
87.6

// Input: `Nc1nc2ccccc2n1/N=C/c1ccc(Br)cc1` . Output its nuclei count only.
87.2

Identify measured nuclei count associated with OCCOCCN1CCN(C(c2ccccc2)c2ccc(Cl)cc2)CC1 (centres undefined)
101

Tell us which nuclei count value is on record for C=CCC(NCc1ccco1)c1ccc(OC)cc1OC (centres undefined)
110

Give the measured nuclei count for `COC(=O)Nc1nc2ccc(C(=O)c3ccccc3)cc2[nH]1`
34.6

Report nuclei count for CC(C)Oc1ccc(C2C(C(=O)c3ccco3)=C(O)C(=O)N2CCCN(C)C)cc1 (centres undefined)
80.9
